Data credit: paper PMC13397619

Let's look at some variants and their measured enrichment.
B1: NLV3 TCR beta chain (CDR3β only) (parent)
chain: ASSPTGGSPSPLH
partner: MLVPMVATV

- Variants of: B1
- assay: T-Switch: Jurkat TCRβ−/− cells expressing a CDR3 saturation-mutagenesis library, stained with two peptide-HLA-A*02:01 tetramers (original and novel peptide) plus anti-CD3, FACS-sorted into four gates, gDNA sequenced
- measurement.context: with HLA-A*02:01 with peptide … (NLV 3-1, the original bait), tetramers 1 µg/mL, 30 min on ice, DP and SW gates expanded about 10 days between rounds ('two to three rounds of selection' in the Methods), gate SP: higher = more of the variant in the gate that binds the original peptide and not the novel one = retained original binding. Fold enrichment of the CDR3 variant in one FACS gate of a two-tetra, unresolved parent, parent is a CDR3 fragment, scale: fold enrichment, numbering: sequential-on-construct, sequence …
property: enrichment

- mutation.spec: "[…] (CDR3 as printed); P9T derived by comparing it with the table's wild-type CDR3 ASSPTGGSPSPLH"
  property: "enrichment"
  observed.result: 0.619
- mutation.spec: "[…] (CDR3 as printed); A1Y derived by comparing it with the table's wild-type CDR3 ASSPTGGSPSPLH"
  property: "enrichment"
  observed.result: 0
- mutation.spec: "[…] (CDR3 as printed); P4N derived by comparing it with the table's wild-type CDR3 ASSPTGGSPSPLH"
  property: "enrichment"
  observed.result: 1.25
- mutation.spec: "[…] (CDR3 as printed); G6L derived by comparing it with the table's wild-type CDR3 ASSPTGGSPSPLH"
  property: "enrichment"
  observed.result: 0
- mutation.spec: "[…] (CDR3 as printed); S10V derived by comparing it with the table's wild-type CDR3 ASSPTGGSPSPLH"
  property: "enrichment"
  observed.result: 0
- mutation.spec: "[…] (CDR3 as printed); T5A derived by comparing it with the table's wild-type CDR3 ASSPTGGSPSPLH"
  property: "enrichment"
  observed.result: 2.2
- mutation.spec: "[…] (CDR3 as printed); A1Q derived by comparing it with the table's wild-type CDR3 ASSPTGGSPSPLH"
  property: "enrichment"
  observed.result: 0
- mutation.spec: "[…] (CDR3 as printed); G7W derived by comparing it with the table's wild-type CDR3 ASSPTGGSPSPLH"
  property: "enrichment"
  observed.result: 0
- mutation.spec: "[…] (CDR3 as printed); S8N derived by comparing it with the table's wild-type CDR3 ASSPTGGSPSPLH"
  property: "enrichment"
  observed.result: 0
- mutation.spec: "[…] (CDR3 as printed); H13E derived by comparing it with the table's wild-type CDR3 ASSPTGGSPSPLH"
  property: "enrichment"
  observed.result: 4.01
